Listing of recorded Selectivity Ki ratio α1β1/α2β3 by entry.
- assay-system: human Na,K-ATPase α2β3FXYD1 (Homo sapiens (Human), UniProt P50993+P54709)
- protocol-notes: biochemical
- Format: biochemical
measured-property: Selectivity Ki ratio α1β1/α2β3

CC1CN(C2CCC2)CCC(O[C@@H]2[C@H](C)O[C@@H](O[C@@H]3[C@H](C)O[C@@H](O[C@H]4CC[C@@]5(C)C(CCC6C5C[C@H](O)[C@]5(C)[C@@H](C7=CC(=O)OC7)CC[C@]65O)C4)C[C@@H]3O)C[C@@H]2O)O1 (stereo partly shown) [DcB] | 33.6
CC1CN(CCS(N)(=O)=O)CCC(O[C@@H]2C(C)O[C@@H](OC3C(C)OC(O[C@H]4CC[C@@]5(C)C(CCC6C5CC(O)[C@]5(C)[C@@H](C7=CC(=O)OC7)CC[C@]65O)C4)C[C@@H]3O)C[C@@H]2O)O1 (stereo in doubt) [DESA] | 15
CC1CN(CCC2CC2)CCC(O[C@@H]2[C@H](C)O[C@@H](O[C@@H]3[C@H](C)O[C@@H](O[C@H]4CC[C@@]5(C)C(CCC6C5C[C@H](O)[C@]5(C)[C@@H](C7=CC(=O)OC7)CC[C@]65O)C4)C[C@@H]3O)C[C@@H]2O)O1 (stereo partly shown) [DEcP] | 12.02
CC1CN(CS(C)(=O)=O)CCC(O[C@@H]2C(C)O[C@@H](OC3C(C)OC(O[C@H]4CC[C@@]5(C)C(CCC6C5CC(O)[C@]5(C)[C@@H](C7=CC(=O)OC7)CC[C@]65O)C4)C[C@@H]3O)C[C@@H]2O)O1 (stereo in doubt) [DMSM] | 10.6

###

Listing of recorded Ki by entry.
- assay-system: UniProt P05023
- Assay type: biochemical
- conditions: read-out: Ki in nM ± SEM α1β1
measured-property: Ki (nM)

CC1CN(CCS(N)(=O)=O)CCC(O[C@@H]2C(C)O[C@@H](OC3C(C)OC(O[C@H]4CC[C@@]5(C)C(CCC6C5CC(O)[C@]5(C)[C@@H](C7=CC(=O)OC7)CC[C@]65O)C4)C[C@@H]3O)C[C@@H]2O)O1 (stereo in doubt) | 301
CC1CN(Cc2ccccc2)CCC(O[C@@H]2[C@H](C)O[C@@H](O[C@@H]3[C@H](C)O[C@@H](O[C@H]4CC[C@@]5(C)C(CCC6C5C[C@H](O)[C@]5(C)[C@@H](C7=CC(=O)OC7)CC[C@]65O)C4)C[C@@H]3O)C[C@@H]2O)O1 (stereo partly shown) | 57.9
CCN1CCC(O[C@@H]2[C@H](C)O[C@@H](O[C@@H]3[C@H](C)O[C@@H](O[C@H]4CC[C@@]5(C)C(CCC6C5C[C@H](O)[C@]5(C)[C@@H](C7=CC(=O)OC7)CC[C@]65O)C4)C[C@@H]3O)C[C@@H]2O)OC(C)C1 (stereo partly shown) | 138
CC1CN(C(C)(C)C)CCC(O[C@@H]2[C@H](C)O[C@@H](O[C@@H]3[C@H](C)O[C@@H](O[C@H]4CC[C@@]5(C)C(CCC6C5C[C@H](O)[C@]5(C)[C@@H](C7=CC(=O)OC7)CC[C@]65O)C4)C[C@@H]3O)C[C@@H]2O)O1 (stereo partly shown) | 135
